Data origin, for the record: patent US20170210813A1

measured-target: T1, Macaca fascicularis PDGFRb.mmh (Macaca fascicularis)
T1 construct: Soluble monomeric construct; also called mfPDGFRb.mmh
T1 chain: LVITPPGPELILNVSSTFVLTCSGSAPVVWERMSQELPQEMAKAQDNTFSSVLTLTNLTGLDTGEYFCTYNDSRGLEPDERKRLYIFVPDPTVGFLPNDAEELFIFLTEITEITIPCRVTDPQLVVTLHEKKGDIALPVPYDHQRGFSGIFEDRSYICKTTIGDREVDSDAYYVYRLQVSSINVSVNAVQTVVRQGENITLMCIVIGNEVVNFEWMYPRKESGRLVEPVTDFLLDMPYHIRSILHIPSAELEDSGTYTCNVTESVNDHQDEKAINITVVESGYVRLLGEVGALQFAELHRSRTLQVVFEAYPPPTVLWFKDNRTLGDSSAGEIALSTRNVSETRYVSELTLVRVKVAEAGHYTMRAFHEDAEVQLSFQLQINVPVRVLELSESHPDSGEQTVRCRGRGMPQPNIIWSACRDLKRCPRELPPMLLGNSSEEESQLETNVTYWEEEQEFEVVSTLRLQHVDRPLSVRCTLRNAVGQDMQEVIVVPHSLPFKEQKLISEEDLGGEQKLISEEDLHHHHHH
protocol-description: SPR, mAb captured, 37 C
endpoint: t1/2
Please make sure the unit comes right after the number.

Below, each entry is followed by its recorded t1/2 result.
[[record]]
binder = "H4H3096S (antibody, human IgG4, V domains shown, human IgG4 Fc (H4H prefix)) VH: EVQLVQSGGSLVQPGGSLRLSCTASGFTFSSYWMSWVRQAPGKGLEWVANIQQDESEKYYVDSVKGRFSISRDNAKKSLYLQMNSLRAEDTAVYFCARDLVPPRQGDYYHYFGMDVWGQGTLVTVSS VL: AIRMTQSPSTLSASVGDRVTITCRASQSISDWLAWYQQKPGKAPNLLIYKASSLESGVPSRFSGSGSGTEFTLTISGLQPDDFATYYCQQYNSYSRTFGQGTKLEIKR"
endpoint = "t1/2"
result = "2 min"

[[record]]
binder = "H4H3105S (antibody, human IgG4, V domains shown, human IgG4 Fc (H4H prefix)) VH: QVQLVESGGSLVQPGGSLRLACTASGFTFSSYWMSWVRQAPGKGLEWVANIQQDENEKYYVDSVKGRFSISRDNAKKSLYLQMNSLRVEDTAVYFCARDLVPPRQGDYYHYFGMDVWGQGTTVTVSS VL: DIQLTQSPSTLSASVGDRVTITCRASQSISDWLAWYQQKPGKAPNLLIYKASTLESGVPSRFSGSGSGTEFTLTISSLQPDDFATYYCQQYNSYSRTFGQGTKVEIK"
endpoint = "t1/2"
result = "3 min"


// switching to the query binder
Input: Look up t1/2 of H4H3374N (antibody, human IgG4, V domains shown, human IgG4 Fc (H4H prefix)) VH: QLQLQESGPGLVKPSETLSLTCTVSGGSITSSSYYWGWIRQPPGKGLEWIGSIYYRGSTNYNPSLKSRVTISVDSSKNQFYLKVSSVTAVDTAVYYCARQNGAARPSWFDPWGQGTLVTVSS VL: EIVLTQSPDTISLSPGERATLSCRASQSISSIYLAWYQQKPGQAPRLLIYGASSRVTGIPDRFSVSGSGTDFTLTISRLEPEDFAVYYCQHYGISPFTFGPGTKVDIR and report it.
Output: 7 min
